- Tested on: L5178Y
- experimental_protocol: The concentration required to inhibit cell growth by 50% was measured on L5178Y Leukemic cell line of mouse(48h after exposure)
- Type: functional, cell-based
The entries below are paired with their reported IC50.
endpoint_label: IC50 (µM)

1. CSC[C@H]1O[C@@H](n2cnc3c(N)ncnc32)[C@H](O)[C@@H]1O; 200
2. CCCSC[C@H]1OC(n2cnc3c(N)ncnc32)[C@H](O)[C@@H]1O (stereo partly specified); 500
3. CCSC[C@H]1OC(n2cnc3c(N)ncnc32)[C@H](O)[C@@H]1O (stereo partly specified); 250
4. Nc1ncnc2c1ncn2C1O[C@H](CSCCO)[C@@H](O)[C@H]1O (stereo partly specified); 500
5. Nc1ncnc2c1ncn2C1O[C@H](CSCCF)[C@@H](O)[C@H]1O (stereo partly specified); 60
6. Nc1ncnc2c1ncn2C1O[C@H](CSCCCF)[C@@H](O)[C@H]1O (stereo partly specified); 600

---

- tgt: Adenosylhomocysteinase (Bos taurus)
- experimental_protocol: Percentage enzyme activity remaining was measured by the inhibition S-adenosyl-L-homocysteine hydrolase from bovine liver at 0.01 uM
Activity: recorded values
endpoint_label: Activity (%)

1) CCCSC[C@H]1OC(n2cnc3c(N)ncnc32)[C@H](O)[C@@H]1O (stereo not given in full); 100
2) Nc1ncnc2c1ncn2C1O[C@H](CSCCCF)[C@@H](O)[C@H]1O (stereo not given in full); 97
3) Nc1ncnc2c1ncn2C1O[C@H](CSCCF)[C@@H](O)[C@H]1O (stereo not given in full); 102
4) CCSC[C@H]1OC(n2cnc3c(N)ncnc32)[C@H](O)[C@@H]1O (stereo not given in full); 99
5) CSC[C@H]1O[C@@H](n2cnc3c(N)ncnc32)[C@H](O)[C@@H]1O; 101

---

Reported Activity values for a set of molecules
- Tested on: L5178Y
- experimental_protocol: Effect of compound on putrescine(PUT) polyamine pool in L5178Y murine leukemia cells expressed in terms of nmol/10e6 cells
- Format: functional, Mus musculus
endpoint_label: Activity

1) CCCSC[C@H]1OC(n2cnc3c(N)ncnc32)[C@H](O)[C@@H]1O (stereo not given in full); 0.25 nmol/10e6 cells
2) Nc1ncnc2c1ncn2C1O[C@H](CSCCCF)[C@@H](O)[C@H]1O (stereo not given in full); 0.36 nmol/10e6 cells
3) Nc1ncnc2c1ncn2C1O[C@H](CSCCO)[C@@H](O)[C@H]1O (stereo not given in full); 0.66 nmol/10e6 cells
4) Nc1ncnc2c1ncn2C1O[C@H](CSCCF)[C@@H](O)[C@H]1O (stereo not given in full); 0.27 nmol/10e6 cells
5) CCSC[C@H]1OC(n2cnc3c(N)ncnc32)[C@H](O)[C@@H]1O (stereo not given in full); 0.69 nmol/10e6 cells

---

- tgt: S-methyl-5'-thioadenosine phosphorylase (Mus musculus)
- Sequence (Q9CQ65 whole entry): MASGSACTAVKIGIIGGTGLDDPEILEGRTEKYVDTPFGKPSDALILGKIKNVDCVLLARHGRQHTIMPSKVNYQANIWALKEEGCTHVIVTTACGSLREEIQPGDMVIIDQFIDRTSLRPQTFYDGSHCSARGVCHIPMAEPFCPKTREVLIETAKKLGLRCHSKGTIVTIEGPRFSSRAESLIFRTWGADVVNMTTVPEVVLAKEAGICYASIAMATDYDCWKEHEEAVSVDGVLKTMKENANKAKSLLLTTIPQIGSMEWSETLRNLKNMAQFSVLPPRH
pKi: −log10 of the molar value.
endpoint_label: pKi

1. CCCSC[C@H]1OC(n2cnc3c(N)ncnc32)[C@H](O)[C@@H]1O (stereo partly specified); 5.77
